The reported measurements were obtained from PubChem BioAssay AID248.

# System: L1210 leukemia ip in BDF1 mice, survival T/C
# Assay Remarks: NCI In Vivo Anticancer Drug Screen. Data for tumor model L1210 Leukemia (intraperitoneal) in B6D2F1 (BDF1) mice
# Experimental Parameters: endpoint: mean survival time; dose: 100.0 mg/kg/injection; schedule: Q01DX Z (ip); vehicle: methylcellulose (MC); higher = longer survival
Inconclusive results and toxic doses are left out.
Reported Property: T/C

Sample records with T/C:
Ask: For the compound CCc1c(Nc2ccc(Cl)c(Cl)c2)nc(N)[nH]c1=O , give its measured T/C value.
Result: 99 % of control

Ask: Give recorded T/C. S=c1ccnc[nH]1
Result: 87 % of control

Ask: Query T/C for O=C1NCC(Nc2ccc(Br)cc2)C(=O)N1 (centres undefined)
Result: 96 % of control

Others:
Ask: For the compound Cc1cccc(Nc2cc(Cl)nc(N)n2)c1 , give its measured T/C value.
Result: 97 % of control

----------
# Test system: L1210 leukemia ip in BDF1 mice, survival T/C
# Assay Remarks: NCI In Vivo Anticancer Drug Screen. Data for tumor model L1210 Leukemia (intraperitoneal) in B6D2F1 (BDF1) mice
# Experimental Parameters: endpoint: mean survival time; dose: 300.0 mg/kg/injection; schedule: Q01DX001 (ip); vehicle: saline; higher = longer survival
Toxic doses and inconclusive results are not listed.
Parameter T/C: see the listing below.

Example entries begin here.
Ask: Determine its reported T/C: O=C1NC(=S)SC1N=Nc1ccc(S(=O)(=O)Nc2ncccn2)cc1 (configuration not stated)
Result: 100 % of control

Ask: Give the measured T/C for ClC1=C2C=CC=CC2C(Cl)(c2ccccc2)C2C1=C(Cl)c1ccccc1C2(Cl)c1ccccc1 (configuration not stated)
Result: 90 % of control

Ask: For the compound Cc1ccc(S(=O)(=O)Oc2ccc(-c3ccc(Br)cc3)cc2)cc1 , report T/C.
Result: 105 % of control

Next:
Ask: Annotate the compound CC(C)N=C(c1ccccc1)N(O)c1ccccc1 with its measured T/C.
Result: 91 % of control

Ask: Please report the measured T/C for NC(=O)NC(=O)c1ccccn1
Result: 100 % of control

Ask: Find the measured T/C of O=[N+]([O-])c1ccc2c(c1)P(=O)(O)c1cc([N+](=O)[O-])ccc1-2 and report it.
Result: 98 % of control

Ask: Give a short answer stating reported T/C for O=C1OC(=O)C2CCC12 (configuration not stated) .
Result: 112 % of control

----------
# Tested on: L1210 leukemia ip in BDF1 mice, survival T/C
# Assay Remarks: NCI In Vivo Anticancer Drug Screen. Data for tumor model L1210 Leukemia (intraperitoneal) in B6D2F1 (BDF1) mice
# Experimental Parameters: endpoint: mean survival time; dose: 10.0 mg/kg/injection; schedule: Q01DX001 (ip); vehicle: saline; higher = longer survival
Toxic doses and inconclusive results are not listed.
Reported Property: T/C

See these solved cases before continuing.
Ask: Query T/C for c1ccc(C[As+](c2ccccc2)(c2ccccc2)c2ccccc2)cc1
Result: 90 % of control

Ask: Indicate the recorded T/C value for this molecule: CC(O)CN(CCN(CC(C)O)CC(C)O)CCN(CC(C)O)CC(C)O.O=S(=O)([O-])[O-].[Cu+2] (stereo not given)
Result: 91 % of control

Ask: State, in one line, measured T/C of Cc1scc[n+]1Cc1ccccc1[N+](=O)[O-]
Result: 109 % of control

Ask: Output T/C of C[N+]1(C2CCCCC2)CCCCC1
Result: 98 % of control

Continuing:
Ask: State, in one line, measured T/C of CS(=O)(=O)OCCN(CCOS(C)(=O)=O)c1cccc(F)c1
Result: 100 % of control

----------
# Test system: L1210 leukemia ip in BDF1 mice, survival T/C
# Assay Remarks: NCI In Vivo Anticancer Drug Screen. Data for tumor model L1210 Leukemia (intraperitoneal) in B6D2F1 (BDF1) mice
# Experimental Parameters: endpoint: mean survival time; dose: 200.0 mg/kg/injection; schedule: Q01DX001 (ip); vehicle: carboxymethylcellulose (CMC); higher = longer survival
Toxic doses and inconclusive results are not listed.
Measured T/C of individual entries

Would you please look over these solved cases?
Ask: // Input: CC1CCc2c(O)ccc(O)c21 (stereo not drawn) . Output its T/C only.
Result: 96 % of control

Ask: Give T/C for the following compound: CCN1C(=O)CC(SC2CC(=O)N(CC)C2=O)C1=O (stereo not drawn)
Result: 94 % of control

Ask: Return T/C (reported value) for this compound: CC(=O)N1c2ccccc2Sc2ccc(C(=O)CCl)cc21
Result: 96 % of control

Further cases:
Ask: Answer with reported T/C of OCC(Cc1ccc(Cl)cc1)N1CCCCC1 (stereo not drawn)
Result: 100 % of control

Ask: Indicate the recorded T/C value for this compound: CCC(Cl)COP(=O)(OCC(Cl)CC)C(CC)CCl (stereo not drawn)
Result: 96 % of control

Ask: Look up T/C of Nc1ncccc1C(=O)O and report it.
Result: 98 % of control

Ask: Given C[n+]1cccc(C(=O)O)c1 , respond with its T/C.
Result: 98 % of control

Ask: Note T/C for the compound shown: [N-]=[N+]=NCC1OC(n2cnc3c(NC=O)ncnc32)CC1C(=O)O (stereo not drawn)
Result: 114 % of control

Ask: # return recorded T/C for entry CCC1([N+](=O)[O-])COP(=O)(NCc2cccnc2)OC1 (stereo not drawn)
Result: 101 % of control

Ask: Fill in reported T/C for this entry: CCS(=O)(=O)c1ccc(NC(=O)Oc2cc(C)ccc2C(C)C)cc1
Result: 96 % of control

----------
# Tested on: L1210 leukemia ip in BDF1 mice, survival T/C
# Assay Remarks: NCI In Vivo Anticancer Drug Screen. Data for tumor model L1210 Leukemia (intraperitoneal) in B6D2F1 (BDF1) mice
# Experimental Parameters: endpoint: mean survival time; dose: 100.0 mg/kg/injection; schedule: Q01DX001 (ip); vehicle: Klucel (hydroxypropylcellulose) (HPC); higher = longer survival
Inconclusive results and toxic doses are left out.
Reported Property: T/C

Ask: Supply T/C measured with L1210 leukemia ip in BDF1 mice, survival T/C for CN(C)c1ccc(C(=O)CCCN2CCC3(CC2)C(=O)NCN3c2ccccc2)cc1 .
Result: 100 % of control

Ask: State measured T/C of the compound CCOC(=O)/C=C(/Nc1ccc(S(=O)(=O)F)cc1)c1ccccc1 with L1210 leukemia ip in BDF1 mice, survival T/C.
Result: 104 % of control

Ask: Supply T/C measured with L1210 leukemia ip in BDF1 mice, survival T/C for c1ccc(Cc2[nH]nc(-c3ccccc3)c2N=Nc2ccccc2)cc1 .
Result: 94 % of control

Ask: Write T/C of O=S1(=O)CCC/C1=C\c1ccccc1 ; system used: L1210 leukemia ip in BDF1 mice, survival T/C
Result: 121 % of control

Ask: Please respond with reported T/C (system L1210 leukemia ip in BDF1 mice, survival T/C) for Cc1nc(N)[nH]c(=O)c1CCCNC(=O)c1cccc(CBr)c1 .
Result: 100 % of control

Ask: For L1210 leukemia ip in BDF1 mice, survival T/C, give T/C of the listed compound: O=C(CCO)Nc1cccc(Cl)c1
Result: 98 % of control

----------
# Lookup of reported T/C keyed by entry
# System: L1210 leukemia ip in BDF1 mice, survival T/C
# Assay Remarks: NCI In Vivo Anticancer Drug Screen. Data for tumor model L1210 Leukemia (intraperitoneal) in B6D2F1 (BDF1) mice
# Experimental Parameters: endpoint: mean survival time; dose: 100.0 mg/kg/injection; schedule: Q04DX003 (ip); vehicle: saline; higher = longer survival
# Experimental: The antitumor activity of compounds was measured in mice bearing transplantable tumors. Survival or tumor size were measured and the results are expressed as the measurement made in the treated group (T) divided by the measurement made in the vehicle treated control group (C). The tumor model used in this assay is L1210 Leukemia (intraperitoneal) in B6D2F1 (BDF1) mice
Toxic doses and inconclusive results are not listed.

Ask: Specify T/C for c1ccncc1 and stop.
Result: 101 % of control

Ask: Give a short answer stating reported T/C for Cc1ccc(C)c(Cl)c1Cl .
Result: 103 % of control

Ask: Specify T/C for C=CCOCC(O)CN(C)CC1CCCO1 (stereo not drawn) and stop.
Result: 98 % of control

Ask: For the compound C=C1C(=O)OC2CCC3OC3CCC12 (stereo not drawn) (tested in a mixture with another compound) , report T/C.
Result: 103 % of control

Ask: Answer with the recorded T/C for the compound listed here: CCCCC(=O)N(c1ccc(Nc2c3ccccc3nc3cc([N+](=O)[O-])ccc23)cc1)S(C)(=O)=O
Result: 103 % of control

Others:
Ask: Determine from records and report T/C for CCCCCCCCCCCCCCCCCCN(c1ccc(C(=O)OCC)cc1)S(=O)(=O)c1ccc(C)cc1
Result: 97 % of control

Ask: Give recorded T/C. O=C(O)C(=O)c1ccccc1
Result: 92 % of control

Ask: Give the reported T/C for this compound. Oc1cc(O)c(CN(CCCl)CCCl)cc1CN(CCCl)CCCl
Result: 110 % of control

Ask: Please look at this compound and report its T/C: CCc1cc(CC)c(CC)c(CC)c1
Result: 107 % of control

Ask: Provide measured T/C value, entry: COC(O)C(Cl)(Cl)Cl (stereo not drawn)
Result: 96 % of control

Ask: Name the recorded T/C of the item CC(=O)OCC(CO)(CO)CO in your answer.
Result: 97 % of control

Ask: Report T/C for CN=C1N[N+]2=C(C)CSCC2(C)S1 (stereo not drawn)
Result: 98 % of control

Ask: // Input: CCOC(CNC(=O)CC(C)=O)OCC . Output its T/C only.
Result: 104 % of control
